Field: TGI. Provide a value for each of the molecules that follow.
tested on: OVCAR-3 ovarian; assay: NCI tumour cell line growth inhibition, 48 h
Please give a number only; it is taken to be in µM.

Looking up `Cc1cn2c(/C=N/N/C(N)=N\N)c(-c3ccc(Cl)c([N+](=O)[O-])c3)nc2s1` , I found its TGI recorded as 1.75

Looking up CCC1CN2CCc3cc(OC)c(OC)cc3C2CC1CC1c2cc(OC)c(OC)cc2CCN1C(=O)CNC(=O)OC(C)(C)C (centres undefined) , I found its TGI recorded as 61.7

Looking up O=C1C(N=Nc2ccc(-c3nc4ccccc4o3)cc2)NC(=S)N1c1ccccc1 (centres undefined) , I found its TGI recorded as 64.3

Looking up `O=[N+]([O-])/C(C(Cl)=C(Cl)Cl)=C1/OCCS1` , I found its TGI recorded as 36.8

Looking up `CCOC(=O)N1CCN(S(=O)(=O)c2oc(-c3ccc(Cl)cc3)nc2C#N)CC1` , I found its TGI recorded as 3.38

Looking up CC(=O)OC1C2(CC3N4C(=O)C5(CO)SSC4(CC31O)C(=O)N5C)OC(C)C(C)(C)C2=O (centres undefined) , I found its TGI recorded as 3.01
